# Test system: Leptosphaeria nodorum (LEPTNO)
# assayComment: In vitro fungitoxicity of hydrazones with and without copper towards Leptosphaeria nodorum (Example 26)
# Assay type: cell-based
# experimentalContext: copper-plus medium (CuCl2 10 μM); test compound Concn. 0.05 μg/mL; 72 h at 25° C.
measuredMetric: LEPTNO % Inhn. Plus Copper Observed

Observe how each entry below is paired with its result.
The measured LEPTNO % Inhn. Plus Copper Observed associated with `O=C(N/N=C/c1c(O)cccc1Cl)c1ccc(F)cc1` reads 94.8%

The measured LEPTNO % Inhn. Plus Copper Observed associated with `O=C(N/N=C/c1c(Cl)ccc(Cl)c1O)c1cccc(Cl)c1` reads 95.5%

Next compound, LEPTNO % Inhn. Plus Copper Observed to be filled in.
The measured LEPTNO % Inhn. Plus Copper Observed associated with `O=C(N/N=C/c1cccc(C(F)(F)F)c1O)c1ccc([N+](=O)[O-])cc1` reads 94.9%

====

TLB % Control by entry:
# Tested on: Phytophthora infestans
# Format: in vivo, Phytophthora infestans on tomato
# experimentalContext: hydrazone 50 ppm + 50 μM CuCl2.2H2O, applied 24 h before inoculation, assessed 7 days after inoculation, tomato
Entry rule: numbers only, all in %.

Observe how each entry below is paired with its result.
The measured TLB % Control associated with `COc1cccc(C(=O)N/N=C/c2cc(Cl)cc(Br)c2O)c1` reads 71.9

The measured TLB % Control associated with `CNc1ccc(C(=O)N/N=C/c2cc(Cl)cc(Cl)c2O)cc1` reads 32.0

---
The measured TLB % Control associated with `Cc1cccc(C(=O)N/N=C/c2cc(Cl)cc(Cl)c2O)c1O` reads 87.3

====

measuredMetric: melting point

Observe how each entry below is paired with its result.
The measured melting point associated with `C/C(=N\NC(=O)c1cccc(C)c1)c1cc(Br)cc(Br)c1O` reads 236 to 238 °C

The measured melting point associated with `O=C(N/N=C/c1cc(C(F)(F)F)cc(Cl)c1O)c1ccccc1C(F)(F)F` reads 169 to 171 °C

The measured melting point associated with `C/C(=N\NC(=O)c1ccc(Br)cc1)c1cc(Br)cc(Br)c1O` reads 264 to 266 °C

The measured melting point associated with `O=C(N/N=C/c1cccc(Cl)c1O)c1ccccc1O` reads 266 to 268 °C

The measured melting point associated with `C/C(=N\NC(=O)c1ccc(C)cc1O)c1cc(Cl)cc(Cl)c1O` reads 320 to 323 °C

The measured melting point associated with `Cc1cc(C)cc(C(=O)N/N=C/c2cc(Cl)ccc2O)c1` reads 196 to 199 °C

The measured melting point associated with `Cc1cccc(C(=O)N/N=C/c2ccc(Cl)cc2O)c1` reads 201 to 203 °C

The measured melting point associated with `C/C(=N\NC(=O)c1ccccc1Cl)c1cc(F)cc(F)c1O` reads 205 to 209 °C

---
The measured melting point associated with `COc1cccc(C(=O)N/N=C/c2cc(Br)ccc2O)c1C` reads 199 to 201 °C

The measured melting point associated with `Cc1ccc(O)c(C(=O)N/N=C/c2cc(Cl)cc(Cl)c2O)c1` reads 277 to 280 °C

The measured melting point associated with `O=C(N/N=C/c1cc(C(F)(F)F)cc(Cl)c1O)c1cccc(F)c1` reads 210 to 212 °C

The measured melting point associated with `C/C(=N\NC(=O)c1ccc(Cl)cc1)c1cc(Cl)cc(Cl)c1O` reads 260 to 262 °C
